src = paper doi:10.1101/2025.05.02.651952

Tgt: Ssa1-WT (yeast, UniProt P10591 1-642)
Sequence (P10591 whole entry): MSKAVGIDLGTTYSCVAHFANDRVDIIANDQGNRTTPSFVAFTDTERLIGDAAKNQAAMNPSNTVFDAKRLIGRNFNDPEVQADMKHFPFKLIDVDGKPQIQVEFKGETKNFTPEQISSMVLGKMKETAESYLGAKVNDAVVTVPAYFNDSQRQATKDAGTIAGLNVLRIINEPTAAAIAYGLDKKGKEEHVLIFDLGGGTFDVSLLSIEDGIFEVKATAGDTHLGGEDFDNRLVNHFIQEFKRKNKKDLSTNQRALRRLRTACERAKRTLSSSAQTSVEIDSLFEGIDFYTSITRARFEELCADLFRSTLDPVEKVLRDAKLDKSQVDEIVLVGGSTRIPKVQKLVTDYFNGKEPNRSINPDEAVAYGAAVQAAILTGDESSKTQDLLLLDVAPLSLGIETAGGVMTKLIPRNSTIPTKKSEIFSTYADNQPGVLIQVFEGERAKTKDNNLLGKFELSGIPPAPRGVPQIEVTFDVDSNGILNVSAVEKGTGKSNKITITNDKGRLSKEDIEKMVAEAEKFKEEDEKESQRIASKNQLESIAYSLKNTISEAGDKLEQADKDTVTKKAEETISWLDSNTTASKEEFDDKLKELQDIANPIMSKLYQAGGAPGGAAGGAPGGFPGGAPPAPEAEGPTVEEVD
Experiment Summary: ELISA

# Binder, binding result
measured = [
    ("Sis1-[change] (natural protein) MVKETKLYDLLGVSPSANEQELKKGYRKAALKYHPDKPTGDTEKFKEIVEAFEILNDPQKREIYDQYGLEAARSGGPSFGPGGPGGAGGAGGFPGGAGGFSGGHAFSNEDAFNIFSQFFGGSSPFGGADDSGFSFSSYPSGGGAGMGGMPGGMGGMHGGMGGMPGGFRSASSSPTYPEEETVQVNLPVSLEDLFVGKKKSFKIGRKGPHGASEKTQIDIQLKPGWKAGTKITYKNQGDYNPQTGRRKTLQFVIQEKSHPNFKRDGDDLIYTLPLSFKESLLGFSKTIQTIDGRTLPLSRVQPVQPSQTSTYPGQGMPTPKNPSQRGNLIVKYKVDYPISLNDAQKRAIDENF", "binds"),
]
